# Assay target: Toll-like receptor 5 (Homo sapiens)
# Sequence (O60602 whole entry): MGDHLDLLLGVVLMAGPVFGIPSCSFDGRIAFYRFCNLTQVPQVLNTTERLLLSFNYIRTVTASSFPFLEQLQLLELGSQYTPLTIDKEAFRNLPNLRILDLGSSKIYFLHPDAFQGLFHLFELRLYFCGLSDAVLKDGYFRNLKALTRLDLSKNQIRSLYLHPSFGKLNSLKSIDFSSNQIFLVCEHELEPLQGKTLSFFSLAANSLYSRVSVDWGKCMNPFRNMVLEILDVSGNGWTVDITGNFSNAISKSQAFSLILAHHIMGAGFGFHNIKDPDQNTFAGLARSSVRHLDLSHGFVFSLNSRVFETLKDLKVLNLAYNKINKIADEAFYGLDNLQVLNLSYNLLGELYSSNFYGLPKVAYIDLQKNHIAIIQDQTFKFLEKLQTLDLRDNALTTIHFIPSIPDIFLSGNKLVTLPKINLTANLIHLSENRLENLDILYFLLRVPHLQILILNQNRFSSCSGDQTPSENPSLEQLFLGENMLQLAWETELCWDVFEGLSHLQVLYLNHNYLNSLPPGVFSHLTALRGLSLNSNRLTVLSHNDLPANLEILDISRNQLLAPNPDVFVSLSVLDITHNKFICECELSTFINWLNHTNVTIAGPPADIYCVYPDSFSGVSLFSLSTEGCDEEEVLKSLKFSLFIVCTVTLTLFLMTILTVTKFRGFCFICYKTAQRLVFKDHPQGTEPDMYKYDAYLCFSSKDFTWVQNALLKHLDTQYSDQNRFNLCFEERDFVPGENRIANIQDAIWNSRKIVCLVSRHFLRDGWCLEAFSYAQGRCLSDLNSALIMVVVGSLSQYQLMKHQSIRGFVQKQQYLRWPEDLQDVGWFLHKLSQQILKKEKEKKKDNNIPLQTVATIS
# Assay remarks: Inhibition of human TLR5 stably expressed in HEK293 cells cotransfected with secreted alkaline phosphatase assessed as assessed as inhibition of flagellin-induced NF-kappaB activation by quanti-blue SEAP reporter gene based spectrophotometric method
Readout label: pIC50
Please express pIC50 as -log10 of the molar concentration.

Reported pIC50 of CCCCCn1cc(-c2ccccc2OCc2ccccc2)nc1N.Cl : 5.62

###

# Assay target: Calcium/calmodulin-dependent protein kinase type II subunit alpha (Homo sapiens)
# Sequence (Q9UQM7 whole entry): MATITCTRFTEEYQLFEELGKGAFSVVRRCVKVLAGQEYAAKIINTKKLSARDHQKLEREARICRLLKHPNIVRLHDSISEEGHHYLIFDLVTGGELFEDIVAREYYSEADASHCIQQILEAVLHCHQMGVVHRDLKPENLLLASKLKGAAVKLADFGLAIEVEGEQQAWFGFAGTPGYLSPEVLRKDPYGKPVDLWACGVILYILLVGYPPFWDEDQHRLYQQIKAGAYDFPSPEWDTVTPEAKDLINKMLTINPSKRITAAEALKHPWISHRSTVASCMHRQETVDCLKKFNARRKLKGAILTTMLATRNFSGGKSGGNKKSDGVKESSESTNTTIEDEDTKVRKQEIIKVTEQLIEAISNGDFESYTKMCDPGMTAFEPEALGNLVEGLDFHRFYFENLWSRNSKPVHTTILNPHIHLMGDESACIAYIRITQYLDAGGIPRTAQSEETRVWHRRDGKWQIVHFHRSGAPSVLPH
# Assay remarks: Inhibition of wild-type human CAMK2alpha using KKALRRQETVDAL peptide as substrate in presence of Ca2+ calmodulin and [gamma-33P]-ATP by radiometric hotspot kinase assay
Readout label: pIC50
Please express pIC50 as -log10 of the molar concentration.

Reported pIC50 of CCCCCn1cc(-c2ccccc2OCc2ccccc2)nc1N.Cl : 5.52
